Tgt: RAC-alpha serine/threonine-protein kinase (Homo sapiens)
Numbered stars: 1 amine (or outer) side, 2 acyl side, 3 side chain; on linkers, the order of the positions; unused ones are H or OH. Square brackets hold non-standard residues; d marks the D form. Peptide text beside a SMILES is read from it. * marks the point of attachment. X1 = O=C(c1ccc(N[*:1])c(-c2ccccc2)c1)[*:2]; X3 = O=C(c1ccc(N[*:1])cc1-c1ccccc1)[*:2]; NHBn = c1ccc(CN*)cc1
Lab note: cut-off is 60 µM. Strictly less in IC50 is condition met. Exactly 60 µM or more is condition not met.

Below are worked cases with known answers.
Strictly below 60 µM in IC50? CC(=O)NCC(=O)N[C@@H](CCCNC(=N)N)C(=O)N1CCC[C@H]1C(=O)N[C@@H](CCCNC(=N)N)C(=O)Nc1ccc(C(=O)N[C@H](C(=O)N[C@@H](Cc2ccccc2)C(=O)NCc2ccccc2)C(C)C)c(-c2ccccc2)c1 (Ac-GRPR[X3]VF-NHBn)
condition met

Lab log: compare recorded IC50 with 60 µM; is it strictly lower for NC(N)=NCC(=O)Nc1ccc(-c2cc3cc(N(Cc4ccccc4)Cc4ccccc4)ccc3[nH]2)cc1 ?
condition not met

Strictly below 60 µM in IC50? COC(=O)c1ccc(-c2cc(C(=O)Nc3ccc(N(Cc4ccccc4)Cc4ccccc4)cc3)ccc2NCCNC(=N)N)cc1
condition not met

I'd appreciate it if you could check whether N=C(N)NCCNc1ccc(C(=O)Nc2ccc(N(Cc3ccc(F)cc3)Cc3ccc(F)cc3)cc2)cc1-c1ccccc1 has IC50 smaller than 60 µM.
condition met

Please let me know if N=C(N)NCCNc1ccc(C(=O)Nc2ccc(N(Cc3ccccc3)Cc3ccccc3)cc2)cc1-c1ccccc1 shows IC50 below 60 µM.
condition not met

***
Below 60 µM on IC50? Entry N#Cc1ccc(CN(Cc2ccc(C#N)cc2)c2ccc(NC(=O)c3ccc(NCCNC(=N)N)c(-c4ccccc4)c3)cc2)cc1
condition met

Hello, is IC50 of the following compound strictly smaller than 60 µM? N=C(N)NCCNc1ccc(C(=O)Nc2ccc(N(Cc3cccc4ccccc34)Cc3cccc4ccccc34)cc2)cc1-c1ccccc1
condition met

Does this compound meet the criterion IC50 < 60 µM? CC(=O)NCC(=O)N[C@@H](CCCNC(=N)N)C(=O)N1CCC[C@H]1C(=O)N[C@@H](CCCNC(=N)N)C(=O)Nc1ccc(C(=O)N[C@H](C(=O)N[C@@H](Cc2ccccc2)C(=O)NCc2ccccc2)C(C)C)cc1-c1ccccc1 (Ac-GRPR[X1]VF-NHBn)
condition not met

Lab note: IC50 threshold 60 µM. Does this compound come in strictly under it? CC(C)c1ccc(CN(Cc2ccc(C(C)C)cc2)c2ccc(NC(=O)c3ccc(NCCNC(=N)N)c(-c4ccc5ccccc5c4)c3)cc2)cc1
condition met

---

Tgt: RAC-alpha serine/threonine-protein kinase (Homo sapiens, UniProt P31749)
Sequence (P31749 whole entry): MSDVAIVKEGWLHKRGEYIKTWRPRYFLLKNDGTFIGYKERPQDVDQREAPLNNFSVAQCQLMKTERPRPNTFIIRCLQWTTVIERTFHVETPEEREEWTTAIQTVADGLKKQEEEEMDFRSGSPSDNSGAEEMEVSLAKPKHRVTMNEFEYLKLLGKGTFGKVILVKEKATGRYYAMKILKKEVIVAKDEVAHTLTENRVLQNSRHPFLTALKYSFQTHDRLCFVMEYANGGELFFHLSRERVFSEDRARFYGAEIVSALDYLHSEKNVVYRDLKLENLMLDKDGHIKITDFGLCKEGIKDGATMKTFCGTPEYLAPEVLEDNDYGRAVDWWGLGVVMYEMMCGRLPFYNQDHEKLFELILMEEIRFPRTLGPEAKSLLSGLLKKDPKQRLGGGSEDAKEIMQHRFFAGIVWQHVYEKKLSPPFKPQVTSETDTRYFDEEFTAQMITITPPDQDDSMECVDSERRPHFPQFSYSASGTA
Numbered stars: 1 amine (or outer) side, 2 acyl side, 3 side chain; on linkers, the order of the positions; unused ones are H or OH. Square brackets hold non-standard residues; d marks the D form. Peptide text beside a SMILES is read from it. * marks the point of attachment. X2 = O=C(c1ccc(N[*:1])cc1-c1cccc2ccccc12)[*:2]; X4 = Cc1cc(C(=O)[*:2])ccc1N[*:1]; NHBn = c1ccc(CN*)cc1
# pIC50 annotations
pIC50 is a log-scale quantity: -log10 of the concentration expressed in molar.

Item CC(=O)NCC(=O)N[C@@H](CCCNC(=N)N)C(=O)N1CCC[C@H]1C(=O)N[C@@H](CCCNC(=N)N)C(=O)Nc1ccc(C(=O)N[C@H](C(=O)N[C@@H](Cc2ccccc2)C(=O)NCc2ccccc2)C(C)C)c(-c2cccc3ccccc23)c1 (Ac-GRPR[X2]VF-NHBn) with RAC-alpha serine/threonine-protein kinase (Homo sapiens, UniProt P31749) - pIC50?
4.11

What is its pIC50 for RAC-alpha serine/threonine-protein kinase (Homo sapiens, UniProt P31749)? Entry: N#Cc1ccc(CN(Cc2ccc(C#N)cc2)c2ccc3[nH]c(-c4ccc(NC(=O)CN=C(N)N)cc4)cc3c2)cc1
4.49

---
What is its pIC50 for RAC-alpha serine/threonine-protein kinase (Homo sapiens, UniProt P31749)? Entry: N=C(N)NCCNc1ccc(C(=O)Nc2ccc(N(Cc3ccc4ccccc4c3)Cc3ccc4ccccc4c3)cc2)cc1-c1ccccc1
4.64

Observed pIC50 on RAC-alpha serine/threonine-protein kinase (Homo sapiens, UniProt P31749) for CC(C)c1ccc(-c2cc(C(=O)Nc3ccc(N(Cc4ccccc4)Cc4ccccc4)cc3)ccc2NCCNC(=N)N)cc1 , please.
4.28

Give recorded pIC50 with RAC-alpha serine/threonine-protein kinase (Homo sapiens, UniProt P31749) for the following compound: CC(=O)NCC(=O)N[C@@H](CCCNC(=N)N)C(=O)N1CCC[C@H]1C(=O)N[C@@H](CCCNC(=N)N)C(=O)Nc1ccc(C(=O)N[C@H](C(=O)N[C@@H](Cc2ccccc2)C(=O)NCc2ccccc2)C(C)C)cc1C (Ac-GRPR[X4]VF-NHBn)
4.30

// map N=C(N)NCCNc1ccc(C(=O)Nc2ccc(N(Cc3ccccc3)Cc3ccccc3)cc2)cc1 to recorded pIC50 (system: RAC-alpha serine/threonine-protein kinase (Homo sapiens, UniProt P31749))
4.02
